Reported Activity values for a set of compounds
# System: Echinochloa crus-galli
# experiment-summary: Herbicidal activity against Echinochloa crus-galli (barnyard grass) at 5000 g/ha after 2 weeks
# Format: functional
Give your result in % as a bare value.

Worked examples follow.
{"compound": "Cc1ccc(F)cc1NC(=O)c1nc(C)c(C)nc1C(=O)NCCC(C)C", "Activity [%]": 30}
{"compound": "CC[C@@H](C)NC(=O)c1nc(C)c(C)nc1C(=O)Nc1cc(Cl)ccc1C", "Activity [%]": 95}
{"compound": "CNC(=O)c1nc(C)c(C)nc1C(=O)Nc1cc(Cl)ccc1C", "Activity [%]": 10}

Qu. Quick one: Activity of Cc1ccc(F)cc1NC(=O)c1nc(C)c(C)nc1C(=O)NC(C)C ?
Ans. 50

Qu. So what does the record say about Activity for CCC(C)NC(=O)c1nc(C)c(C)nc1C(=O)Nc1cc(Cl)ccc1C (racemic) ?
Ans. 95

Qu. Item under review: CC[C@H](C)NC(=O)c1nc(C)c(C)nc1C(=O)Nc1cc(Cl)ccc1C . Reported Activity?
Ans. 95

Qu. Value lookup for Activity; key = CC[C@H](C)NC(=O)c1nc(C)c(C)nc1C(=O)Nc1cc(F)ccc1C
Ans. 70

Qu. Form field: reported Activity of Cc1ccc(Cl)cc1NC(=O)c1nc(C)c(C)nc1C(=O)NCC(C)C
Ans. 95

Qu. Query (compound): CCCCCNC(=O)c1nc(C)c(C)nc1C(=O)Nc1cc(F)ccc1C ; field requested: Activity
Ans. 30

Measured values drawn from ChEMBL document CHEMBL3046846 for this set.
